# Target: NOXA1
# Method: pooled miR-30 sensor sort-seq; sequence = guide strand; also: reference of the scale not given here
# Experimental parameters: shRNA
Metric: sensor-assay potency score (higher = more potent)
The response must contain the number and no unit.

Q. Identify measured sensor-assay potency score (higher = more potent) obtained with NOXA1 for TTGGTCCAGGGCTGAGTCCAGG .
A. -1.7

Q. Specify the recorded sensor-assay potency score (higher = more potent) for TCACACAGGACGTCCACCGTGT , system: NOXA1.
A. 0.181

Q. Report the value of sensor-assay potency score (higher = more potent) obtained on NOXA1 for TCCTGGTAGGCAGTCGACGTGC .
A. -1.54

Q. Identify measured sensor-assay potency score (higher = more potent) obtained with NOXA1 for TCTGTCTCTGCATCGAGGGGGC .
A. -0.532

Q. Under NOXA1, report sensor-assay potency score (higher = more potent) for TTAGGGACCTGGCATCATGGTT
A. -1.05

Q. With NOXA1 as the test system, provide measured sensor-assay potency score (higher = more potent) for this sequence: TCTGCAGCGACTCCTCCTCGGG
A. -1.51

Q. Enter sensor-assay potency score (higher = more potent) (test system NOXA1) for TTGGGGAAGATGCCGATGCGGC
A. -1.12

Q. Write sensor-assay potency score (higher = more potent) of TGGTAGGCAGTCGACGTGCAGC ; system used: NOXA1
A. -1.86

###

# Target: FOXK1
# Method: pooled miR-30 sensor sort-seq; sequence = guide strand
# Experimental parameters: shRNA
For each record, write down the corresponding sensor-assay potency score (higher = more potent).
Reply with the value as a number alone.

Q. Report sensor-assay potency score (higher = more potent) under test system FOXK1 for TTGGGTCGCAAGGAGCTGCAAA .
A. -0.645

Q. GET sensor-assay potency score (higher = more potent) | system: FOXK1 | item: ATGAGGAACTCGAACTCGCGGC
A. -0.982

Q. State the measured sensor-assay potency score (higher = more potent) (FOXK1) of TGGATCTTGATGGCCGTGCTGG
A. -0.887

Q. Report sensor-assay potency score (higher = more potent) on FOXK1 for this entry: TTCAAAGAGAGGTTGTGCCGGA
A. 0.647

Q. Enter recorded sensor-assay potency score (higher = more potent) with FOXK1 for TTTGGGAATACCGGTACTCTGG here.
A. -1.08

Q. Enter measured sensor-assay potency score (higher = more potent), system FOXK1, for the sequence shown: TTCTTTGTGATAGAGCGACGTG
A. -0.986

Q. Lab note: record sensor-assay potency score (higher = more potent) of TTGCTGCAAACTCTGCTGCCAG tested on FOXK1.
A. -1.02

###

# Target: PLAA
# Method: pooled miR-30 sensor sort-seq; sequence = guide strand
# Experimental parameters: shRNA
Metric: sensor-assay potency score (higher = more potent)
Format: numeric value only, no unit, no commentary.

Q. Supply reported sensor-assay potency score (higher = more potent) belonging to this sequence: TTAACTTCTTCTCTTCAGGTGC
A. 0.5

Q. Give reported sensor-assay potency score (higher = more potent) value for TTTTAGATGCAGCTGATCGGTA
A. -0.655

Q. Please look at this sequence and report its sensor-assay potency score (higher = more potent): TAACACTCCACTGATAGGCTTC
A. 0.424

Q. In one line, give reported sensor-assay potency score (higher = more potent) of the entry TATACTTCAAGACACTCGCCAG .
A. -0.398

Q. Return the recorded sensor-assay potency score (higher = more potent) value; entry: TATTGTGGTCATTTCCACCGGT
A. 0.536

Q. Entry TAGACTGAGCTGGAAGTCGGAT needs its sensor-assay potency score (higher = more potent) filled in; supply it.
A. -0.595

Q. Find the measured sensor-assay potency score (higher = more potent) of TTATTTGAGAATCAACACCTAA and report it.
A. -0.576

Q. Report sensor-assay potency score (higher = more potent), nothing else, for this sequence: TTAGTGACAAACATTGGGCTTT
A. 0.657

Q. Specify sensor-assay potency score (higher = more potent) for TAATTAGTGACAAACATTGGGC and stop.
A. -0.357

These measurements were taken from the OligoGym collection.
